TEST_SUMMARY: FAERS analysis of reported rhabdomyolysis cases per suspect drug
SETUP_CONDITIONS: FAERS 2004 to 31 March 2020; total 27,140 rhabdomyolysis cases; some cases with more than one suspected drug
TEST_READOUT: Number of Rhabdomyolysis Cases

COMPOUND	TEST_READOUT	TEST_VALUE
Nc1nnc(-c2cccc(Cl)c2Cl)c(N)n1	Number of Rhabdomyolysis Cases	314
CC(C)c1c(C(=O)Nc2ccccc2)c(-c2ccccc2)c(-c2ccc(F)cc2)n1CC[C@@H](O)C[C@@H](O)CC(=O)O	Number of Rhabdomyolysis Cases	3307
COc1ccc2[nH]c([S+]([O-])Cc3ncc(C)c(OC)c3C)nc2c1 (centres unmarked)	Number of Rhabdomyolysis Cases	363
CC(=O)Nc1ccc(O)cc1	Number of Rhabdomyolysis Cases	449
CN[C@H]1CC[C@@H](c2ccc(Cl)c(Cl)c2)c2ccccc21	Number of Rhabdomyolysis Cases	347

----------
TEST_SUMMARY: FAERS analysis of reported rhabdomyolysis cases per suspect drug
SETUP_CONDITIONS: monotherapy rhabdomyolysis cases with fatal outcome

MOL	Number of Death Cases (n = 576)
CC(C)c1cccc(C(C)C)c1O	70
CC(C)C[C@H](CN)CC(=O)O	13
Cc1nc2n(c(=O)c1CCN1CCC(c3noc4cc(F)ccc34)CC1)CCCC2	7
OCCOCCN1CCN(C2=Nc3ccccc3Sc3ccccc32)CC1	26
O=C1[C@H](CC[C@H](O)c2ccc(F)cc2)[C@@H](c2ccc(O)cc2)N1c1ccc(F)cc1	6

----------
TEST_SUMMARY: FAERS analysis of reported rhabdomyolysis cases per suspect drug
SETUP_CONDITIONS: suspected drug reported as a single drug used (monotherapy); FAERS 2004 to 31 March 2020
TEST_READOUT: Number of Rhabdomyolysis Cases (n = 6583)

COMPOUND	TEST_VALUE
CC(C)OC(=O)C(C)(C)Oc1ccc(C(=O)c2ccc(Cl)cc2)cc1 [Fenofibrate]	126
OCCOCCN1CCN(C2=Nc3ccccc3Sc3ccccc32)CC1	199
CC[C@@H](C(N)=O)N1CCCC1=O	386
CC(C)c1cccc(C(C)C)c1O	179
CC(C)C[C@H](CN)CC(=O)O	132
CN1CCN(C2=Nc3cc(Cl)ccc3Nc3ccccc32)CC1	116
CC(C)c1c(C(=O)Nc2ccccc2)c(-c2ccccc2)c(-c2ccc(F)cc2)n1CC[C@@H](O)C[C@@H](O)CC(=O)O	1386
O=C1[C@H](CC[C@H](O)c2ccc(F)cc2)[C@@H](c2ccc(O)cc2)N1c1ccc(F)cc1	166
CC(C)c1nc(N(C)S(C)(=O)=O)nc(-c2ccc(F)cc2)c1/C=C/[C@@H](O)C[C@@H](O)CC(=O)O	1122

----------
TEST_SUMMARY: FAERS analysis of reported rhabdomyolysis cases per suspect drug
SETUP_CONDITIONS: FAERS 2004 to 31 March 2020; total 27,140 rhabdomyolysis cases; some cases with more than one suspected drug
# Lookup of reported Number of Rhabdomyolysis Cases keyed by entry
TEST_READOUT: Number of Rhabdomyolysis Cases

COMPOUND	TEST_READOUT	TEST_VALUE
O=C1CCc2ccc(OCCCCN3CCN(c4cccc(Cl)c4Cl)CC3)cc2N1	Number of Rhabdomyolysis Cases	419
NS(=O)(=O)c1cc(C(=O)O)c(NCc2ccco2)cc1Cl [Furosemide]	Number of Rhabdomyolysis Cases	480
CC(C)OC(=O)C(C)(C)Oc1ccc(C(=O)c2ccc(Cl)cc2)cc1 [Fenofibrate]	Number of Rhabdomyolysis Cases	449
CC(C)c1cccc(C(C)C)c1O	Number of Rhabdomyolysis Cases	434
O=C1[C@H](CC[C@H](O)c2ccc(F)cc2)[C@@H](c2ccc(O)cc2)N1c1ccc(F)cc1	Number of Rhabdomyolysis Cases	501
Cc1ccc(C)c(OCCCC(C)(C)C(=O)O)c1	Number of Rhabdomyolysis Cases	442
Cc1nnc2n1-c1ccc(Cl)cc1C(c1ccccc1)=NC2	Number of Rhabdomyolysis Cases	290
OCCOCCN1CCN(C2=Nc3ccccc3Sc3ccccc32)CC1	Number of Rhabdomyolysis Cases	761
CC(C)C[C@H](CN)CC(=O)O	Number of Rhabdomyolysis Cases	442
CC(=O)Oc1ccccc1C(=O)O	Number of Rhabdomyolysis Cases	313

----------
TEST_SUMMARY: FAERS analysis of reported rhabdomyolysis cases per suspect drug
SETUP_CONDITIONS: FAERS 2004 to 31 March 2020; of 27,140 cases
Use 2% as the dividing line for (%) of total rhabdomyolysis cases, with the line itself on the met side and lower values as not met.

MOLECULE	LABEL
O=C1[C@H](CC[C@H](O)c2ccc(F)cc2)[C@@H](c2ccc(O)cc2)N1c1ccc(F)cc1	not met
CN(C)C(=N)N=C(N)N	not met
COc1ccc2[nH]c([S+]([O-])Cc3ncc(C)c(OC)c3C)nc2c1 (stereo not shown)	not met
CC(C)c1nc(N(C)S(C)(=O)=O)nc(-c2ccc(F)cc2)c1/C=C/[C@@H](O)C[C@@H](O)CC(=O)O	met
O=C(CCCN1CCC(O)(c2ccc(Cl)cc2)CC1)c1ccc(F)cc1	not met
Cc1ccc(C)c(OCCCC(C)(C)C(=O)O)c1	not met
COc1ccc(C(CN(C)C)C2(O)CCCCC2)cc1 (stereo not shown)	not met
CN1CCN(C2=Nc3cc(Cl)ccc3Nc3ccccc32)CC1	not met
CC[C@H]1OC(=O)[C@H](C)[C@@H](O[C@H]2C[C@@](C)(OC)[C@@H](O)[C@H](C)O2)[C@H](C)[C@@H](O[C@@H]2O[C@H](C)C[C@H](N(C)C)[C@H]2O)[C@](C)(OC)C[C@@H](C)C(=O)[C@H](C)[C@@H](O)[C@]1(C)O	not met
Cc1nnc2n1-c1ccc(Cl)cc1C(c1ccccc1)=NC2	not met
CC(=O)Nc1ccc(O)cc1	not met
OCCOCCN1CCN(C2=Nc3ccccc3Sc3ccccc32)CC1	met
CC(=O)Oc1ccccc1C(=O)O	not met
CC(C)OC(=O)C(C)(C)Oc1ccc(C(=O)c2ccc(Cl)cc2)cc1 [Fenofibrate]	not met
CN[C@H]1CC[C@@H](c2ccc(Cl)c(Cl)c2)c2ccccc21	not met
CC(C)c1cccc(C(C)C)c1O	not met
O=C1CCc2ccc(OCCCCN3CCN(c4cccc(Cl)c4Cl)CC3)cc2N1	not met
CC[C@@H](C(N)=O)N1CCCC1=O	met
NS(=O)(=O)c1cc(C(=O)O)c(NCc2ccco2)cc1Cl [Furosemide]	not met
CC(C)C[C@H](CN)CC(=O)O	not met
CC(C)c1c(C(=O)Nc2ccccc2)c(-c2ccccc2)c(-c2ccc(F)cc2)n1CC[C@@H](O)C[C@@H](O)CC(=O)O	met
Nc1nnc(-c2cccc(Cl)c2Cl)c(N)n1	not met

----------
TEST_SUMMARY: FAERS analysis of reported rhabdomyolysis cases per suspect drug
SETUP_CONDITIONS: monotherapy; of 6583 cases
Entry flag: Fulfilled if (%) of monotherapy rhabdomyolysis cases reaches 2%; Not fulfilled if it does not.

COMPOUND	LABEL
CN1CCN(C2=Nc3cc(Cl)ccc3Nc3ccccc32)CC1 [Clozapine]	Not fulfilled
CC(C)OC(=O)C(C)(C)Oc1ccc(C(=O)c2ccc(Cl)cc2)cc1 [Fenofibrate]	Not fulfilled
CC[C@@H](C(N)=O)N1CCCC1=O [Levetiracetam]	Fulfilled
O=C1[C@H](CC[C@H](O)c2ccc(F)cc2)[C@@H](c2ccc(O)cc2)N1c1ccc(F)cc1 [Ezetimibe]	Fulfilled
OCCOCCN1CCN(C2=Nc3ccccc3Sc3ccccc32)CC1 [Quetiapine]	Fulfilled

----------
Reported (%) of monotherapy rhabdomyolysis cases values are given for each entry in this list.
TEST_SUMMARY: FAERS analysis of reported rhabdomyolysis cases per suspect drug
SETUP_CONDITIONS: monotherapy; of 6583 cases

COMPOUND	(%) of monotherapy rhabdomyolysis cases
CC(C)C[C@H](CN)CC(=O)O [Pregabalin]	2.0
CC(C)c1c(C(=O)Nc2ccccc2)c(-c2ccccc2)c(-c2ccc(F)cc2)n1CC[C@@H](O)C[C@@H](O)CC(=O)O [Atorvastatin]	21.1
CC(C)c1cccc(C(C)C)c1O [Propofol]	2.7
CC(C)c1nc(N(C)S(C)(=O)=O)nc(-c2ccc(F)cc2)c1/C=C/[C@@H](O)C[C@@H](O)CC(=O)O [Rosuvastatin]	17.0

----------
Tested on: primary human skeletal muscle-derived cells (HSKMDC)
TEST_SUMMARY: cells
Format: cell-based
SETUP_CONDITIONS: Homo sapiens, Myotube, 2 h, read-out: LDH IC50 Glucose
pIC50: −log10 of the molar value.
TEST_READOUT: pIC50

MOLECULE	TEST_VALUE
C=C(C)[C@H]1Cc2c(ccc3c2O[C@@H]2COc4cc(OC)c(OC)cc4[C@@H]2C3=O)O1 [Rotenone]	< 5.30

----------
TEST_SUMMARY: FAERS analysis of reported rhabdomyolysis cases per suspect drug
SETUP_CONDITIONS: rhabdomyolysis with suspected drug vs all other drugs in FAERS
Each record here notes measured ROR (reported odds ratio).

COMPOUND	ROR (reported odds ratio)
NS(=O)(=O)c1cc(C(=O)O)c(NCc2ccco2)cc1Cl [Furosemide]	0.8
COc1ccc(C(CN(C)C)C2(O)CCCCC2)cc1 (stereo not shown) [Venlafaxine]	0.5
Nc1nnc(-c2cccc(Cl)c2Cl)c(N)n1 [Lamotrigine]	0.3
O=C(CCCN1CCC(O)(c2ccc(Cl)cc2)CC1)c1ccc(F)cc1 [Haloperidol]	1.3
CC(=O)Nc1ccc(O)cc1 [Acetaminophen]	0.3
CC[C@@H](C(N)=O)N1CCCC1=O [Levetiracetam]	0.9
O=C1[C@H](CC[C@H](O)c2ccc(F)cc2)[C@@H](c2ccc(O)cc2)N1c1ccc(F)cc1 [Ezetimibe]	2.6
CN[C@H]1CC[C@@H](c2ccc(Cl)c(Cl)c2)c2ccccc21 [Sertraline]	0.4
COc1ccc2[nH]c([S+]([O-])Cc3ncc(C)c(OC)c3C)nc2c1 (stereo not shown) [Omeprazole]	0.5
CN(C)C(=N)N=C(N)N [Metformin]	0.4
